Each recorded value in this set is attributed to patent US10570179B2.

# protocol text: Plasma stability assay
# Assay type: in vitro ADME, human
# test context: plasma stability half-life, human plasma, 37° C.
Numbered stars: 1 amine (or outer) side, 2 acyl side, 3 side chain; on linkers, the order of the positions; unused ones are H or OH. Bridge positions count the residues as written; N and C are the ends. Square brackets hold non-standard residues; d marks the D form. Peptide text beside a SMILES is read from it. * marks the point of attachment. X5 = O=C([C@@H]1C[C@@H](OP(=O)(O)O)CN1[*:1])[*:2]; Piperazine(2S-CO,4-Me) = CN1CCN[C@H](C(=O)O)C1; Phe(3-Me) = Cc1cccc(C[C@H](N)C(=O)O)c1; Pro(4S-Me) = C[C@@H]1CN[C@H](C(=O)O)C1; NH(4-Cl-2-F-phenyl) = Fc1cc(Cl)ccc1N*; Pro(4R-Me) = C[C@H]1CN[C@H](C(=O)O)C1; Hyp = O=C(O)[C@@H]1C[C@@H](O)CN1; NH(4-Me-phenyl) = Cc1ccc(N*)cc1; aThr = C[C@H](O)[C@H](N)C(=O)O; Pip = O=C(O)[C@@H]1CCCCN1; CO = O=C([*:1])[*:2]
metric: Human

Example cases with answers are listed next.
| compound | Human |
| --- | --- |
| Cc1ccc(NC(=O)N[C@@H](Cc2cccc(C)c2)C(=O)N[C@@H]2C(=O)N3CCC[C@H]3C(=O)N3CCCC[C@H]3C(=O)N[C@@H](C)C(=O)N3C[C@@H](C)C[C@H]3C(=O)O[C@H]2C)cc1 [Compound 45] ({NH(4-Me-phenyl)-CO}-[Phe(3-Me)][aThr]P[Pip]A[Pro(4S-Me)]; ester 2-C) | >50 h |
| Cc1ccc(NC(=O)N[C@@H](Cc2cccc(C)c2)C(=O)N[C@H]2COC(=O)[C@@H]3CCCN3C(=O)[C@H](C)NC(=O)[C@@H]3CCCCN3C(=O)[C@@H]3C[C@@H](O)CN3C2=O)cc1 [Compound 49] | 29.79 h |
| Cc1cccc(C[C@H](NC(=O)Nc2ccc(Cl)cc2F)C(=O)N[C@@H]2C(=O)N3C[C@H](OP(=O)(O)O)C[C@H]3C(=O)N3CCCC[C@H]3C(=O)N[C@@H](C)C(=O)N3C[C@H](C)C[C@H]3C(=O)O[C@H]2C)c1 [Compound 29] ({NH(4-Cl-2-F-phenyl)-CO}-[Phe(3-Me)][aThr][X5][Pip]A[Pro(4R-Me)]; ester 2-C) | >50 h |

Prompt: What value of Human has been recorded for this entry: Cc1ccc(NC(=O)N[C@@H](Cc2cccc(C)c2)C(=O)N[C@@H]2C(=O)N3C[C@H](O)C[C@H]3C(=O)N3CCN(C)C[C@H]3C(=O)N[C@@H](C)C(=O)N3C[C@H](C)C[C@H]3C(=O)O[C@H]2C)cc1 [Compound 30] ({NH(4-Me-phenyl)-CO}-[Phe(3-Me)][aThr][Hyp][Piperazine(2S-CO,4-Me)]A[Pro(4R-Me)]; ester 2-C)
Completion: >50 h
